Item-by-item account of pIC50
# Test system: A549
# assay text: Cytotoxicity against human A549 cells by SRB assay
# Format: functional, cell-based
pIC50: −log10 of the molar value.
reported endpoint: pIC50

> print(dat)
                              smiles.string  reported.endpoint  result
1  CO[C@@]12CCCC[C@H]1[C@@H]1O[C@H](C)[C@@H](C)c3c(C)c(O)cc(c31)O2              pIC50  < 4.52
2  Cc1c(O)cc(O)c2c1[C@H](C)[C@@H](C)OC21CCCCC1              pIC50    4.55
3  COc1cccc2c1C(=O)c1c(O)c3c(c(O)c1C2=O)C[C@@](O)(C(=O)CO)C[C@@H]3O[C@H]1C[C@H](N)[C@H](O)[C@H](C)O1              pIC50  > 6.00
4  Cc1c(O)cc2c3c1[C@H](C)[C@@H](C)O[C@@H]3[C@@H]1CCCC[C@]1(O)O2              pIC50  < 4.52
5  CO[C@]12CCCC[C@@H]1[C@H]1O[C@H](C)[C@@H](C)c3c(C)c(O)cc(c31)O2              pIC50    4.72
6  Cc1c(O)cc2c3c1[C@H](C)[C@@H](C)O[C@H]3[C@@H]1CCCC[C@@]1(O)O2              pIC50  < 4.52
7  Cc1c(O)cc2c3c1[C@H](C)[C@@H](C)O[C@@H]3[C@H]1CCCC[C@]1(O)O2              pIC50  < 4.52

====

# System: Staphylococcus aureus
# assay text: Antibacterial activity against Staphylococcus aureus ATCC 29213
# Assay type: functional
Catalogue of compounds with associated MIC
reported endpoint: MIC

> print(dat)
                              smiles.string        subject.of.test  reported.endpoint      result
1  C/C=C/[C@@H]1C=C[C@@H]2C[C@H](C)CC[C@H]2[C@]1(C)/C(O)=C1/C(=O)[C@H](CO)N(C)C1=O  Staphylococcus aureus                MIC     2 µg/mL
2  Cc1c(O)cc2c3c1[C@H](C)[C@@H](C)O[C@H]3[C@@H]1CCCC[C@@]1(O)O2  Staphylococcus aureus                MIC  > 64 µg/mL
3  Cc1c(O)cc2c3c1[C@H](C)[C@@H](C)O[C@H]3[C@H]1CCCC[C@@]1(O)O2  Staphylococcus aureus                MIC  > 64 µg/mL
4  Cc1c(O)cc2c3c1[C@H](C)[C@@H](C)O[C@@H]3[C@@H]1CCCC[C@]1(O)O2  Staphylococcus aureus                MIC  > 64 µg/mL
5  CO[C@@]12CCCC[C@H]1[C@@H]1O[C@H](C)[C@@H](C)c3c(C)c(O)cc(c31)O2  Staphylococcus aureus                MIC    64 µg/mL
6  CO[C@]12CCCC[C@@H]1[C@H]1O[C@H](C)[C@@H](C)c3c(C)c(O)cc(c31)O2  Staphylococcus aureus                MIC  > 64 µg/mL
7  Cc1c(O)cc(O)c2c1[C@H](C)[C@@H](C)OC21CCCCC1  Staphylococcus aureus                MIC    16 µg/mL
8  Cc1c(O)cc2c3c1[C@H](C)[C@@H](C)O[C@@H]3[C@H]1CCCC[C@]1(O)O2  Staphylococcus aureus                MIC  > 64 µg/mL

====

# Tested on: MDA-MB-231
# assay text: Cytotoxicity against human MDA-MB-231 cells by SRB assay
# Assay type: functional, cell-based
pIC50: −log10 of the molar value.
reported endpoint: pIC50

> print(dat)
                                   molecule  subject.of.test  result
1  Cc1c(O)cc2c3c1[C@H](C)[C@@H](C)O[C@H]3[C@H]1CCCC[C@@]1(O)O2       MDA-MB-231  < 4.52
2  Cc1c(O)cc2c3c1[C@H](C)[C@@H](C)O[C@@H]3[C@H]1CCCC[C@]1(O)O2       MDA-MB-231  < 4.52
3  CO[C@]12CCCC[C@@H]1[C@H]1O[C@H](C)[C@@H](C)c3c(C)c(O)cc(c31)O2       MDA-MB-231  < 4.52
4  Cc1c(O)cc2c3c1[C@H](C)[C@@H](C)O[C@@H]3[C@@H]1CCCC[C@]1(O)O2       MDA-MB-231  < 4.52
5  CO[C@@]12CCCC[C@H]1[C@@H]1O[C@H](C)[C@@H](C)c3c(C)c(O)cc(c31)O2       MDA-MB-231  < 4.52
6  Cc1c(O)cc(O)c2c1[C@H](C)[C@@H](C)OC21CCCCC1       MDA-MB-231    4.59
7  COc1cccc2c1C(=O)c1c(O)c3c(c(O)c1C2=O)C[C@@](O)(C(=O)CO)C[C@@H]3O[C@H]1C[C@H](N)[C@H](O)[C@H](C)O1 [DOXORUBICIN]       MDA-MB-231  > 6.00
8  Cc1c(O)cc2c3c1[C@H](C)[C@@H](C)O[C@H]3[C@@H]1CCCC[C@@]1(O)O2       MDA-MB-231  < 4.52

====

# Tested on: Enterococcus faecalis
# assay text: Antibacterial activity against Vancomycin resistant Enterococcus faecalis 1010798
# Format: functional
reported endpoint: MIC

> print(dat)
                              smiles.string  reported.endpoint      result
1  Cc1c(O)cc2c3c1[C@H](C)[C@@H](C)O[C@@H]3[C@@H]1CCCC[C@]1(O)O2                MIC  > 64 µg/mL
2  Cc1c(O)cc2c3c1[C@H](C)[C@@H](C)O[C@H]3[C@@H]1CCCC[C@@]1(O)O2                MIC  > 64 µg/mL
3  CO[C@@]12CCCC[C@H]1[C@@H]1O[C@H](C)[C@@H](C)c3c(C)c(O)cc(c31)O2                MIC    32 µg/mL
4  Cc1c(O)cc2c3c1[C@H](C)[C@@H](C)O[C@H]3[C@H]1CCCC[C@@]1(O)O2                MIC  > 64 µg/mL
